ASSAYED TARGET: human ether-à-go-go-related gene (hERG) potassium channel (human, UniProt Q12809);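 also: peak tail current of the secondary pulse compared with the same well before compound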
Sequence (Q12809 whole entry, looked up): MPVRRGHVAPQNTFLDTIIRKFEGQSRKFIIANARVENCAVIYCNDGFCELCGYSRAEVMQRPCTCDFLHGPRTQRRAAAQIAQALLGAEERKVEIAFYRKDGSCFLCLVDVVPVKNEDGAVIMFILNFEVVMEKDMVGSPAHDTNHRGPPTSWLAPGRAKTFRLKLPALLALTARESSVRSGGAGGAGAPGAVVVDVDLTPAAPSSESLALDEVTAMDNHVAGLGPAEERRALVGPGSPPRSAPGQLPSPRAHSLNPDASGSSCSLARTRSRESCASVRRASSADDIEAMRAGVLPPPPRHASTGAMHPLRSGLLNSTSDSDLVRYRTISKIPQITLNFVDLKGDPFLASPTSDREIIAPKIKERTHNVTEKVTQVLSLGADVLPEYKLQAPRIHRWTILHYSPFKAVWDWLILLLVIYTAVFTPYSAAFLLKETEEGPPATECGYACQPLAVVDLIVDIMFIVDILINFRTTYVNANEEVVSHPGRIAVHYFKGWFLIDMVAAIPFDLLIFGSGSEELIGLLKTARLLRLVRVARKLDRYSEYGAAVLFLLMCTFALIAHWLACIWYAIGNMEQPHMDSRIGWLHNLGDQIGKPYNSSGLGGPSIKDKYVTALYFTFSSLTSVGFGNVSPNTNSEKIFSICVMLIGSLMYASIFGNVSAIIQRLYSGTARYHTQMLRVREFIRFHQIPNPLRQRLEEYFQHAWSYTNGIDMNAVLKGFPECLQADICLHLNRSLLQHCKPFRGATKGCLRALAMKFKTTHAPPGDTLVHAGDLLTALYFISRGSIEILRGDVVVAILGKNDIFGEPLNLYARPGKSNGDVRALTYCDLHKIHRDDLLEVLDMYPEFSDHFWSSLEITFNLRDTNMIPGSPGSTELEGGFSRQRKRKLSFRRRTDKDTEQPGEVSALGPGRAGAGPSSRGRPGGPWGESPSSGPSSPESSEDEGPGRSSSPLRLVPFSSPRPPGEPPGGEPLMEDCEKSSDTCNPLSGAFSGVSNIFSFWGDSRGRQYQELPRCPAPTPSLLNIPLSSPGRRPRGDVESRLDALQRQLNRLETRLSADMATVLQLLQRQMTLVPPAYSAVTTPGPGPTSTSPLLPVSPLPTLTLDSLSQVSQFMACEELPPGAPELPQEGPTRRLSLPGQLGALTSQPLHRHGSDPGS
EXPERIMENTAL DETAILS: primary screen, population patch clamp on CHO cells stably expressing hERG; higher = less effect of the substance
Out of some 310,000 compounds screened, about 14,000 (4.5%) showed an effect of 50% or more. The effect is printed as a negative number. The list comes from a sample in which strong results are over-represented; it also holds close analogues and randomly drawn compounds.
Measured hERG current change (%, negative = inhibition) at 10uM of individual entries
MEASUREMENT LABEL: hERG current change (%, negative = inhibition) at 10uM (%)

>>> print(df.to_string())
                                    compound  assay_result
 0  CN1CC(C(=O)c2ccc([N+](=O)[O-])cc2)C(c2ccc(Cl)cc2)C1 (centres unmarked)         -75.6
 1  CN(CC(=O)Nc1ccccn1)S(=O)(=O)c1ccc(Cl)cc1         -9.34
 2  Cc1ccc(C2CN(c3ccccc3)CC2C(=O)c2ccc(F)cc2)cc1 (centres unmarked)           -17
 3  O=C(O)CC(c1cccc(C(F)(F)F)c1)N1CCS(=O)(=O)CC1 (centres unmarked)          2.42
 4  COc1cc2c(cc1OC)-c1nnc(-c3ccco3)n1C1(CCCC1)C2         -8.01
 5  O=c1ccc(-c2ccc(S(=O)(=O)Nc3cccc(Br)c3)o2)n[nH]1          14.8
 6  CN1CC(C(=O)c2ccc(Cl)cc2)C(c2ccc(Cl)cc2Cl)C1 (centres unmarked)         -49.2
 7  O=C(Nc1cccnc1)c1cccc(S(=O)(=O)N2CCOCC2)c1          4.06
 8  O=C(Nc1ccc2c(c1)CCC2)c1cccc(S(=O)(=O)N2CCN(c3ccc(F)cc3)CC2)c1         -3.29
 9                       Cl.O=C(O)CCN1CCOCC1          19.8
10          O=C(Nc1cccc(NC(=O)C2CC2)n1)C1CC1         -6.67
11  COc1cccc(C(=O)C2CN(C)CC2c2ccc(Cl)cc2)c1 (centres unmarked)         -66.4
12  O=C(Nc1ccncc1)c1cccc(S(=O)(=O)N2CCOCC2)c1         -58.4
13  Cc1ccc(C2CN(C)CC2C(=O)c2ccc(F)cc2)cc1 (centres unmarked)         -53.2
14  O=C(Nc1cccc(S(=O)(=O)N2CCCC2)c1)c1cccc(S(=O)(=O)N2CCOCC2)c1         -15.5
15  CCN(CC)S(=O)(=O)c1cccc(NC(=O)c2ccc(Br)cc2)c1          4.07
16  CN(C)S(=O)(=O)c1cccc(NC(=O)c2cncc(Br)c2)c1         -3.39
17  O=C(Nc1ccncc1)c1cccc(S(=O)(=O)N2CCN(c3ccc(F)cc3)CC2)c1         -82.9
18  CN1CCN(S(=O)(=O)c2cccc(C(=O)Nc3cc(C(N)=O)cc(C(N)=O)c3)c2)CC1          4.71
19  CN1CC(C(=O)c2ccc(F)cc2)C(c2ccc(F)cc2)C1 (centres unmarked)         -30.2
